Measured pKi, listed per entry.
SYSTEM_TESTED: Mu-type opioid receptor (Rattus norvegicus, UniProt P33535)
Sequence (P33535 whole entry): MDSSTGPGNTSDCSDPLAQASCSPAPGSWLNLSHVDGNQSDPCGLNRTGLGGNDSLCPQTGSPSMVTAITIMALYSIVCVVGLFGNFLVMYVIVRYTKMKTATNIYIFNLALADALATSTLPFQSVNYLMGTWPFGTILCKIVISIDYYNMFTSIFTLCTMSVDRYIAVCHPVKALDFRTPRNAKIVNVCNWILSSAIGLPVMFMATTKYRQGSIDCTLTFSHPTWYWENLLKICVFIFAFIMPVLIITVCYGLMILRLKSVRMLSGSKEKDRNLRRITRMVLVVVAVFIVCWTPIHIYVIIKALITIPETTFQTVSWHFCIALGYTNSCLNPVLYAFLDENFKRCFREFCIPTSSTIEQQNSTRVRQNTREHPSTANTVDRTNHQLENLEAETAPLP
EXPERIMENT: Displacement of [3H]DAMGO from mu opioid receptor in rat brain membrane
Type: cell membranes
Would you please state pKi, meaning minus log10 of the concentration in mol/L, as a bare number?

Solved entries:
Cc1cc(C(N)=O)cc(C)c1CCC(=O)NC1CSSCC(C(N)=O)NC(=O)[C@H](Cc2ccc([N+](=O)[O-])cc2)NC(=O)CNC1=O (stereo in doubt): 8.55
Cc1cc(O)cc(C)c1CCC(=O)NC1CSSCC(C(N)=O)NC(=O)[C@H](Cc2ccc([N+](=O)[O-])cc2)NC(=O)CNC1=O (stereo in doubt): 8.32

# query: pKi of entry `CC[C@H](C)[C@H](NC(=O)[C@H](CCCNC(=N)N)NC(=O)[C@H](CCCNC(=N)N)NC(=O)[C@H](CC(C)C)NC(=O)[C@H](Cc1ccccc1)NC(=O)CNC(=O)CNC(=O)CCc1c(C)cc(C(N)=O)cc1C)C(=O)N[C@@H](CCCNC(=N)N)C(=O)N1CCC[C@H]1C(=O)N[C@@H](CCCCN)C(N)=O`
7.35

----------
Quick record: pKi, Kappa-type opioid receptor (Cavia porcellus).
Would you please state pKi, meaning minus log10 of the concentration in mol/L, as a bare number?

CC[C@H](C)[C@H](NC(=O)[C@H](CCCNC(=N)N)NC(=O)[C@H](CCCNC(=N)N)NC(=O)[C@H](CC(C)C)NC(=O)[C@H](Cc1ccccc1)NC(=O)CNC(=O)CNC(=O)CCc1c(C)cc(C(N)=O)cc1C)C(=O)N[C@@H](CCCNC(=N)N)C(=O)N1CCC[C@H]1C(=O)N[C@@H](CCCCN)C(N)=O: 7.49
Cc1cc(C(N)=O)cc(C)c1CCC(=O)NC1CSSCC(C(N)=O)NC(=O)[C@H](Cc2ccc([N+](=O)[O-])cc2)NC(=O)CNC1=O (stereo in doubt): 6.01

Now, please, on to the next compound.
API: value(readout=pKi, system=Kappa-type opioid receptor (Cavia porcellus)) for record Cc1cc(O)cc(C)c1CCC(=O)NC1CSSCC(C(N)=O)NC(=O)[C@H](Cc2ccc([N+](=O)[O-])cc2)NC(=O)CNC1=O (stereo in doubt)
6.52

----------
Measured pKi, listed per entry.
SYSTEM_TESTED: Delta-type opioid receptor (Rattus norvegicus, UniProt P33533)
Sequence (P33533 whole entry): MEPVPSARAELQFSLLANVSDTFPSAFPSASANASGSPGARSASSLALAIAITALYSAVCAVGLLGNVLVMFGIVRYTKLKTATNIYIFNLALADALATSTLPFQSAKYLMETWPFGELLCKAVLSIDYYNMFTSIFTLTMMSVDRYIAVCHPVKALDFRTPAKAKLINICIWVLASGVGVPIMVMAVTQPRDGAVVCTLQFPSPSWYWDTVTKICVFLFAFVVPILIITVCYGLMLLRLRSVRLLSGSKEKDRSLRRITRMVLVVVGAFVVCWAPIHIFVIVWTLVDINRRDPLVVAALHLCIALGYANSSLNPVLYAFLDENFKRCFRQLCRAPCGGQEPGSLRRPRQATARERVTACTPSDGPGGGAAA
EXPERIMENT: Displacement of [3H]DSLET from delta opioid receptor in rat brain membrane
Would you please state pKi, meaning minus log10 of the concentration in mol/L, as a bare number?

Solved entries:
Cc1cc(O)cc(C)c1CCC(=O)NC1CSSCC(C(N)=O)NC(=O)[C@H](Cc2ccc([N+](=O)[O-])cc2)NC(=O)CNC1=O (stereo in doubt): 7.94
CC[C@H](C)[C@H](NC(=O)[C@H](CCCNC(=N)N)NC(=O)[C@H](CCCNC(=N)N)NC(=O)[C@H](CC(C)C)NC(=O)[C@H](Cc1ccccc1)NC(=O)CNC(=O)CNC(=O)CCc1c(C)cc(C(N)=O)cc1C)C(=O)N[C@@H](CCCNC(=N)N)C(=O)N1CCC[C@H]1C(=O)N[C@@H](CCCCN)C(N)=O: 6.89

# query: pKi of entry Cc1cc(C(N)=O)cc(C)c1CCC(=O)NC1CSSCC(C(N)=O)NC(=O)[C@H](Cc2ccc([N+](=O)[O-])cc2)NC(=O)CNC1=O (stereo in doubt)
7.59
